Catalogue of sequences with associated log10 ABTS
Test: ABTS radical scavenging assay
Assay type: biochemical
Details: supplement tables; replicate 1
Description: The ABTS radical scavenging activity of the sample was measured using a method adapted from Mirzaei et al.. […] The resulting solution was then diluted to achieve an absorbance of 0.74 ± 0.03 at 734 nm, using deionized water for adjustments. […] The mixture was incubated in the dark for 7 min, after which the absorbance was measured at 734 nm. The ABTS radical scavenging activity (%) was calculated using the following equation (2): […]
Record value = log10 of ABTS given in TE/mg protein.

Consider the following illustrative entries.
EQIYPMGEGDEL [P4, synthesized peptide identified from jellyfish fraction PUR20C]
2.01
LMFMAVAFF [P12, synthesized peptide identified from jellyfish fraction PUR20C]
-0.05
KFNEVVYFL [P15, synthesized peptide identified from jellyfish fraction PUR20C]
2.12
RPLAKIIP [P8, synthesized peptide identified from jellyfish fraction PUR20C]
0.40
PMETDDQPNN [P17, synthesized peptide identified from jellyfish fraction PUR20C]
0.61

QUERY: So what does the record say about log10 ABTS for TDSPAPSETTD [P2, synthesized peptide identified from jellyfish fraction PUR20C] ?
RESULT: 0.49

QUERY: # input sequence: EIDKLPPESRP [P7, synthesized peptide identified from jellyfish fraction PUR20C] ; wanted: its log10 ABTS
RESULT: 0.23

QUERY: Recorded log10 ABTS of RARVVPMY [P6, synthesized peptide identified from jellyfish fraction PUR20C] , please.
RESULT: 2.14

QUERY: Name the reported log10 ABTS value associated with the sequence LNIPKPKLNLL [P11, synthesized peptide identified from jellyfish fraction PUR20C]
RESULT: 0.61

QUERY: Recorded log10 ABTS of NFTVLCDSLE [P10, synthesized peptide identified from jellyfish fraction PUR20C] , please.
RESULT: 1.99

* * *

Test system: RAW 264.7
Assay: Cytotoxicity assessment (MTT)
Assay type: cell-based, Murine
Conditions: peptide 10 µg/mL, 72 h, replicate 3
Cell viability for assorted sequences
Answer in %, number only, no unit symbol.

Below, 3 sequences whose answers are already recorded.
PFTMYFLL [P14, synthesized peptide identified from jellyfish fraction PUR20C]
93.14
LGAEGRSP [P13, synthesized peptide identified from jellyfish fraction PUR20C]
84.53
NQKAMQELNE [P1, synthesized peptide identified from jellyfish fraction PUR20C]
84.00

QUERY: // lookup Cell viability for NFTVLCDSLE [P10, synthesized peptide identified from jellyfish fraction PUR20C]
RESULT: 86.29

QUERY: If you can, please state the reported Cell viability value of RPLAKIIP [P8, synthesized peptide identified from jellyfish fraction PUR20C] .
RESULT: 81.54

QUERY: Entry EIDKLPPESRP [P7, synthesized peptide identified from jellyfish fraction PUR20C] : reported Cell viability = ?
RESULT: 81.19

QUERY: For the sequence EQIYPMGEGDEL [P4, synthesized peptide identified from jellyfish fraction PUR20C] , what Cell viability is on record?
RESULT: 81.72

* * *

Test system: angiotensin I-converting enzyme (ACE)
Test: ACE inhibitory activity assay (fluorometric ACE activity assay kit)
Format: biochemical
Conditions: peptide sample 1 mg/mL; replicate 1
List of ACE inhibitory activity values.
Just so you know, I need the unit written after the number.

NQKAMQELNE [P1, synthesized peptide identified from jellyfish fraction PUR20C]
6.67%
TDSPAPSETTD [P2, synthesized peptide identified from jellyfish fraction PUR20C]
0.66%
EIILIPMF [P3, synthesized peptide identified from jellyfish fraction PUR20C]
33.58%

Let's switch to this sequence now.
QUERY: Look up ACE inhibitory activity for this sequence: LGAEGRSP [P13, synthesized peptide identified from jellyfish fraction PUR20C]
RESULT: 21.56%

* * *

Tested on: angiotensin I-converting enzyme (ACE)
Test: ACE inhibitory activity assay (fluorometric ACE activity assay kit)
Type: biochemical
Conditions: peptide sample 1 mg/mL; replicate 3
# binarize ACE inhibitory activity: threshold 20% inclusive, high side MET, low side NOT MET

PMETDDQPNN [P17, synthesized peptide identified from jellyfish fraction PUR20C]
NOT MET
NQKAMQELNE [P1, synthesized peptide identified from jellyfish fraction PUR20C]
NOT MET
GKNCGETVWE [P9, synthesized peptide identified from jellyfish fraction PUR20C]
NOT MET
RARVVPMY [P6, synthesized peptide identified from jellyfish fraction PUR20C]
MET
DAENKENVEE [P18, synthesized peptide identified from jellyfish fraction PUR20C]
MET
LGAEGRSP [P13, synthesized peptide identified from jellyfish fraction PUR20C]
MET

QUERY: # bool: ACE inhibitory activity of LNIPKPKLNLL [P11, synthesized peptide identified from jellyfish fraction PUR20C] >= 20%
RESULT: MET

* * *

Tested on: RAW 264.7
Assay: Anti-inflammation assay: released NO in LPS-stimulated RAW 264.7 (Griess)
Format: cell-based, Murine
Conditions: peptide 10 µg/mL 1 h, then 1 µg/mL LPS 24 h; replicate 1
Protocol: Murine macrophage cells (RAW 264.7; ATCC TIB-71™) were cultured in Dulbecco’s Modified Eagle’s Medium (DMEM) that was supplemented with 10% heat-inactivated fetal bovine serum (FBS) and 1% antibiotic solution. […] The anti-inflammation assay was conducted following the method described by Barzkar et al. with slight modifications. […] A NO calibration curve was generated to quantify the released NO in the conditioned medium.
property.name: Released NO (µM)
Provide the reading as a plain figure in µM.

Below, 6 sequences whose answers are already recorded.
TDSPAPSETTD [P2, synthesized peptide identified from jellyfish fraction PUR20C]
38.27
MVVACVLPEA [P16, synthesized peptide identified from jellyfish fraction PUR20C]
35.17
DAENKENVEE [P18, synthesized peptide identified from jellyfish fraction PUR20C]
34.13
PMETDDQPNN [P17, synthesized peptide identified from jellyfish fraction PUR20C]
34.48
HSVLTASYRN [P5, synthesized peptide identified from jellyfish fraction PUR20C]
34.13
NFTVLCDSLE [P10, synthesized peptide identified from jellyfish fraction PUR20C]
35.86

Now let's try a different one.
QUERY: Given GKNCGETVWE [P9, synthesized peptide identified from jellyfish fraction PUR20C] , state its recorded Released NO.
RESULT: 35.86

* * *

Assay: Ferric reducing antioxidant power (FRAP) assay
Type: biochemical
Details: supplement tables; replicate 3
The reader will find reported FRAP values listed item by item below.
I only need the number, in mM FeSO4/mg protein, no unit after it.

Use these answered entries as a reference point.
EIDKLPPESRP [P7, synthesized peptide identified from jellyfish fraction PUR20C]
12.47
RPLAKIIP [P8, synthesized peptide identified from jellyfish fraction PUR20C]
9.10

Then there is this sequence:
QUERY: Any idea what FRAP was measured for LGAEGRSP [P13, synthesized peptide identified from jellyfish fraction PUR20C] ?
RESULT: 4.05

* * *

Test system: angiotensin I-converting enzyme (ACE)
Assay: ACE inhibitory activity assay (fluorometric ACE activity assay kit)
Assay type: biochemical
Details: peptide sample 1 mg/mL; replicate 3
Parameter threshold = 50%. Response is satisfied when ACE inhibitory activity meets or exceeds it, else not satisfied.

Some solved entries appear below for comparison.
RPLAKIIP [P8, synthesized peptide identified from jellyfish fraction PUR20C]
not satisfied
EIDKLPPESRP [P7, synthesized peptide identified from jellyfish fraction PUR20C]
not satisfied
PFTMYFLL [P14, synthesized peptide identified from jellyfish fraction PUR20C]
satisfied
MVVACVLPEA [P16, synthesized peptide identified from jellyfish fraction PUR20C]
satisfied
EIILIPMF [P3, synthesized peptide identified from jellyfish fraction PUR20C]
not satisfied

Turning to the following sequence.
QUERY: Quick check, ACE inhibitory activity >= 50%? HSVLTASYRN [P5, synthesized peptide identified from jellyfish fraction PUR20C]
RESULT: not satisfied

* * *

Quick reference: ACE inhibitory activity of the listed items.
Tested on: angiotensin I-converting enzyme (ACE)
Assay: ACE inhibitory activity assay (fluorometric ACE activity assay kit)
Type: biochemical
Settings: peptide sample 1 mg/mL; replicate 2
Write the answer as a number in %, unit excluded.

EIDKLPPESRP [P7, synthesized peptide identified from jellyfish fraction PUR20C]
8.96

QUERY: Look at this sequence and give its reported ACE inhibitory activity. HSVLTASYRN [P5, synthesized peptide identified from jellyfish fraction PUR20C]
RESULT: 31.01

QUERY: Entry NQKAMQELNE [P1, synthesized peptide identified from jellyfish fraction PUR20C] has what ACE inhibitory activity?
RESULT: 6.67

QUERY: For the sequence GKNCGETVWE [P9, synthesized peptide identified from jellyfish fraction PUR20C] , what ACE inhibitory activity is on record?
RESULT: 8.68

QUERY: Request the reported ACE inhibitory activity associated with PFTMYFLL [P14, synthesized peptide identified from jellyfish fraction PUR20C]
RESULT: 81.67

QUERY: Requested read-out: ACE inhibitory activity. Entry: LNIPKPKLNLL [P11, synthesized peptide identified from jellyfish fraction PUR20C]
RESULT: 25.00

QUERY: GET /values?readout=ACE inhibitory activity&item= EQIYPMGEGDEL [P4, synthesized peptide identified from jellyfish fraction PUR20C]
RESULT: 4.10
